# Tested on: KM12
# EXPERIMENTAL PROTOCOL: NCI tumour cell line growth inhibition, 48 h
Active and inactive are the calls of the source. Rule as the data show it: active = GI50 up to about 1.1 µM and inactive = higher.
REPORTED PROPERTY: GI50

{"COMPOUND": "N#CC(C(=O)C(=O)C(C#N)c1ccc(Br)cc1)c1ccc(Br)cc1 (stereo not drawn)", "REPORTED PROPERTY": "GI50", "RECORDED VALUE": "10.6 µM (inactive)"}
{"COMPOUND": "O=c1c2ccccc2[nH]c(=S)n1-c1ccc(Br)cc1", "REPORTED PROPERTY": "GI50", "RECORDED VALUE": "> 100 µM (inactive)"}
{"COMPOUND": "C/C(CC(=O)Nc1ccc([N+](=O)[O-])cc1)=N\\NC(N)=O", "REPORTED PROPERTY": "GI50", "RECORDED VALUE": "> 100 µM (inactive)"}
{"COMPOUND": "C/C1=C\\CC[C@@]2(C)O[C@@H]2C[C@@H]2[C@H](C/C(C)=C/CC1)OC(=O)C21CC1", "REPORTED PROPERTY": "GI50", "RECORDED VALUE": "> 100 µM (inactive)"}
{"COMPOUND": "CC(C)(CO)CNc1cc(Cl)nc(N)n1", "REPORTED PROPERTY": "GI50", "RECORDED VALUE": "> 100 µM (inactive)"}

[ask] // lookup GI50 for Nc1nc(=O)n(C2CC(O)C(CO)O2)c2nc(-c3ccc(-c4ccccc4)cc3)cnc12 (stereo not drawn)
[reply] > 10 µM (inactive)

[ask] Please give the result for N#Cc1c(N)nc(S)c(C#N)c1-c1ccccc1 too.
[reply] > 100 µM (inactive)

[ask] Proceed to COc1cc2c(cc1O)NC(=O)[C@@H]1CCCN1C2=O
[reply] > 100 µM (inactive)
